target: FGFR1 (UniProt P11362); assay: phosphorylation enrichment, bacterial display (enrichment ratio); higher = better substrate or ligand; peptides without Tyr show the background;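 also: 11-residue human phosphosite peptides and single-mutation variants displayed on the E. coli surface, counted by deep sequencing, each peptide's frequency after selection divided by its frequency in the unselected input library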;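 also: frequency after pTyr selection over input frequency; kinase dosed for 20-30% of maximal phosphorylation in three min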
Sequence (P11362 whole entry, looked up): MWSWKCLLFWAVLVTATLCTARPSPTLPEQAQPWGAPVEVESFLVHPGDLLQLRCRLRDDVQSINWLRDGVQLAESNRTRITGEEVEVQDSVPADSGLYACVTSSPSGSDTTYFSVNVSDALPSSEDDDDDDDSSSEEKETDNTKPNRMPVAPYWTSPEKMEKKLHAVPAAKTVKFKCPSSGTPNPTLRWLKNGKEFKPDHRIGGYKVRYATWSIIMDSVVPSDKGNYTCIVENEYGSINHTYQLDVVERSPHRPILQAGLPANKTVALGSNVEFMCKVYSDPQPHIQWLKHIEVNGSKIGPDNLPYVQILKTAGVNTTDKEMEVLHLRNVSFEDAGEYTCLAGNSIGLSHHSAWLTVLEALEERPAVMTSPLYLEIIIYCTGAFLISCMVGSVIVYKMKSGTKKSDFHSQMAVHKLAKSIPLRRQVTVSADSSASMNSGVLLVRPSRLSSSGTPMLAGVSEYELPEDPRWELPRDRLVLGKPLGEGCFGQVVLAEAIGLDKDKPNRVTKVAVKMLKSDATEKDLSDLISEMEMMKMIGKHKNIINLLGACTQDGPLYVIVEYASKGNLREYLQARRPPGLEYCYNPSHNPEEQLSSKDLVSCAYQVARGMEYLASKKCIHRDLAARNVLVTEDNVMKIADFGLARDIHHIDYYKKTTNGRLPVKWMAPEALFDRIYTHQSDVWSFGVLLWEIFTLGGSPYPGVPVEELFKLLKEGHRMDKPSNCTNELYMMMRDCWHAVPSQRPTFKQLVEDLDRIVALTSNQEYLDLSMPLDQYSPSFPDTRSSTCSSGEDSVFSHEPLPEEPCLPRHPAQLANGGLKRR
Is phosphorylation enrichment at least 0.5? Then Met. If not, Not met.

INSERT INTO measurements (ordered_residues, cat) VALUES
  ('PTDSVYVMPTV [MYO7A_Y1668]', 'Met'),
  ('IFGVSYGEFRF [CFTR_Y512_D513G_YF]', 'Not met'),
  ('HNLNYYKKTTN [FGFR3_Y648_D646N]', 'Not met'),
  ('FTRNYYVRAVL [CYBA_Y88]', 'Met'),
  ('RNYGTYTAGLS [RHBDD1_Y264_D262G]', 'Met'),
  ('PVADPYDQSFE [MAPK14_Y323]', 'Met'),
  ('YSTDYYRVGGH [NTRK2_Y707]', 'Met'),
  ('ADARMYGVLPR [PLP1_Y207_W212R]', 'Not met'),
  ('SVVVPNEPPEV [TP53_Y220_Y220N]', 'Met'),
  ('SVVLPYEPPEV [TP53_Y220_V218L]', 'Met'),
  ('VRFMAYTDETC [F8_Y450_F455C]', 'Met'),
  ('RPYSPYIIRGM [LRP5_Y1531_R1529S]', 'Not met'),
  ('ALLTKYSRSSM [DSCC1_Y374_H376R]', 'Met'),
  ('KLMTEYKKRKQ [ARFGEF3_Y2029]', 'Not met'),
  ('VLVSQYEKLDA [AMZ2_Y26_N30D]', 'Not met'),
  ('RRGMPYGGHGD [TGM1_Y312_R315H]', 'Met'),
  ('ADDSYYTARSA [ZAP70_Y493]', 'Met'),
  ('DVYVSYDYGKS [SORL1_Y139]', 'Met'),
  ('VNTMLYEKFTF [TEK_Y1108_T1106M_YF]', 'Met'),
  ('RVLHNYLVWRV [ECEL1_Y400]', 'Met'),
  ('HSPLRYTSILT [OR51B6_Y130_R125H]', 'Met'),
  ('GVLKEYGEKVL [CPS1_Y529_V531E]', 'Not met'),
  ('AKIDGYIISYR', 'Met'),
  ('CGASGYSATST [CERT1_Y143_S138C]', 'Not met'),
  ('QVMDGYPMPIG [MMP14_Y353]', 'Met'),
  ('GLRSYYETSKM [MAGED2_Y449]', 'Met'),
  ('GKGGSYSQAAS [HLA-B_Y344_C349S]', 'Met'),
  ('LFSLGYHQSRW [GANAB_Y396]', 'Met'),
  ('PEADKYRLPYA [FGG_Y300_T303P]', 'Not met'),
  ('GRVLGYGAFRK [FLT4_Y853_G857R]', 'Not met'),
  ('LRYDSYSSYCN [SLC20A2_Y433]', 'Met'),
  ('SEVVPYEPPEV [TP53_Y220_V216E]', 'Met'),
  ('EAVKNYTEKRG [PBRM1_Y672_D674E]', 'Not met'),
  ('QLFGPYLRIHA [BSCL2_Y213_A212P_YF]', 'Met'),
  ('LGPSDYFGEIA [PRKAR1A_Y323]', 'Met'),
  ('INNKMYDPKMN [ENPP1_Y280_D276N]', 'Not met'),
  ('VVEDGYEFFAK [PPP1CB_Y254]', 'Met'),
  ('YAGRDYSLDEF [MYOF_Y1705_G1701A]', 'Met'),
  ('MRNDLYQTPLH [NFKB1_Y582]', 'Not met'),
  ('FAELVYTGFWH [ASS1_Y322]', 'Met'),
  ('CTLLPYYSARV [DGKE_Y269]', 'Not met'),
  ('LLREWYVQDPY [SIX3_Y225_L226V]', 'Met'),
  ('FQHLRYIKQLG [SAMHD1_Y146_R143H]', 'Not met'),
  ('QWQQLYDTLNA [EIF3M_Y351]', 'Met'),
  ('MGGSLYFSYPD [HIKESHI_Y55_V54L]', 'Met'),
  ('KDQPDYKFQPR [SOX9_Y172_H169Q_YF]', 'Not met'),
  ('VPFARYLAMNK [HARS1_Y138]', 'Not met'),
  ('GLDGSYLPRDS [SH2D1A_Y29_L31P]', 'Not met'),
  ('YSIDYYRVGGH [NTRK2_Y707_T704I]', 'Met');
